Examples of compounds with documented composite z-score follow.
Target: Left-right determination factor 2 (Homo sapiens)
Test: LEFTY2 binders on small-molecule microarrays, primary screen, biochemical, small-molecule microarray, 635 nm fluorescence scan (AID 1110)
Conditions: LEFTY2 binding, higher = more signal
Please state the value as a number alone, without comment.

compound | composite z-score
COc1c(C)cc(-c2cc3c(c(CCc4ccccc4)n2)[Si](C(C)C)(C(C)C)OC3)cc1C | 0.474
COCCOC(=O)N1C(=O)[C@@]2(c3cc(C#CC4(O)CCCCCC4)ccc31)[C@H](C(=O)NC[C@H](O)c1ccccc1)[C@H]1C(=O)O[C@H](c3ccccc3)[C@H](c3ccccc3)N1[C@@H]2c1ccccc1OCCO | 0.678
C[C@@H](OCc1ccccc1)C1NC(=O)[C@@]23C(=O)N[C@@H](Cc4ccccc4)C2[C@H](C)[C@@]2(C)O[C@H]2C3/C=C/C/C=C\CNC(=O)[C@@H]2CCCN2C1=O (stereo partly specified) | -0.0437
COc1ccc(/C=C/C(=O)c2cccc(OCC(=O)OC(C)(C)C)c2)cc1 | -0.606
C=C(COC)/C(=C/C[C@H](OC(C)=O)c1cccc(OCCO)c1)c1cc(C(=O)OC)ccc1OC | 0.38

In: In one line, give reported composite z-score of the entry "COCCOC(=O)N1C(=O)[C@@]2(c3cc(C#CCCO)ccc31)[C@H](c1ccccc1OCCO)N1[C@H](c3ccccc3)[C@H](c3ccccc3)OC(=O)[C@H]1[C@@H]2C(=O)NC[C@H](O)c1ccccc1" .
Out: 0.449

----------
Test: inhibitors of CMV-promoter luciferase reporter, dose response, counter-screen for Pax8 inhibitor project, cell-based, HEK293, luminescence, dry powder (AID 743020);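 note: HEK293 cells stably expressing the CMV luciferase reporter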
Settings: SteadyGlo luminescence, 24 h; series mostly up to 35 µM
Potency and affinity values are given separately. Inconclusive results are not listed. Active and inactive are the calls of the source.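 Rule for the calls: active = signal-lowering compounds whose fitted half-maximal concentration is at or below twice the top tested dose in every run; inconclusive = runs disagree, flat 30 to 70% inhibition, or poor curve fit; inactive = the rest.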
endpoint: activity change, negative = inhibition

Some solved cases for reference:
molecule | activity change, negative = inhibition
C=C1C(=O)O[C@@H]2[C@H]1[C@@H](OC(=O)/C(C)=C/C)C/C(C)=C\C(=O)/C=C(\C)[C@@H]2O | inactive
NC(=O)[C@H]1CC2(CC(c3cccc(NC(=O)COc4ccc(Cl)cc4)c3)=NO2)CN1C(=O)C(c1ccccc1)c1ccccc1 (stereo not given in full) | inactive
O=C(C[C@@H]1CC[C@@H]2[C@H](COC[C@@H](O)CN2C(=O)Nc2ccc(Cl)c(Cl)c2)O1)NCc1ccc(Cl)cc1 | inactive
c1ccc(COc2ccc(OCCN3CCCCC3)cc2)cc1 | inactive
COC(=O)C1=C(C)N(Cc2ccc(C(F)(F)F)cc2)C(=NCc2ccccc2)NC1c1cccc(F)c1 (stereo not given) | inactive
COc1ccc(NC(=O)Nc2ccc3c(c2)C(=O)N([C@@H](C)CO)C[C@@H](C)[C@@H](CN(C)Cc2ccc(C(F)(F)F)cc2)OCCCC[C@@H](C)O3)cc1 | inactive
COc1cccc(N(C(=O)c2ccco2)c2nc(-c3sc(NC(=O)c4ccco4)nc3C)cs2)c1 | inactive
C[C@H](CO)N1C[C@H](C)[C@@H](CN(C)Cc2ccc(C(F)(F)F)cc2)Oc2ccc(NS(=O)(=O)c3ccccc3)cc2CC1=O | inactive
COc1ccc2c3c(n(C)c2c1)[C@H](CO)N(C(=O)Nc1ccc(F)cc1)CC31CCN(S(=O)(=O)c2cccc(C)c2)CC1 | inactive
COc1ccccc1NC(=O)N1CCCCN2[C@@H](CO)[C@@H](c3ccc(-c4cccc(C)c4)cc3)[C@@H]2C1 | inactive

In: Report activity change, negative = inhibition, nothing else, for this molecule: "CC(C)CC#Cc1ccc([C@@H]2[C@@H](CO)N3CCCCN(S(=O)(=O)c4ccc(F)cc4)C[C@H]23)cc1"
Out: inactive

In: Tell me activity change, negative = inhibition reported for "C[C@H]1CN([C@@H](C)CO)C(=O)c2cccc(NC(=O)Nc3ccc(C(F)(F)F)cc3)c2O[C@H]1CN(C)C(=O)NC1CCCCC1"
Out: inactive

In: Name the recorded activity change, negative = inhibition of the molecule listed here: "C[C@@H]1CN([C@@H](C)CO)S(=O)(=O)c2ccc(C#C[C@@H](C)O)cc2O[C@H]1CN(C)Cc1ccc(-c2ccccc2)cc1"
Out: inactive

In: Hello, please tell me recorded activity change, negative = inhibition for this one: "C[C@@H]1CN([C@@H](C)CO)C(=O)c2cc(NC(=O)Nc3ccc(C(F)(F)F)cc3)ccc2O[C@H]1CN(C)C(=O)Nc1ccc(C(F)(F)F)cc1"
Out: inactive

In: Tell me its activity change, negative = inhibition given "CCOc1ccc(NC(=O)Nc2cccc(C(=O)O)c2)cc1" as the entry.
Out: inactive
